Overview of recorded Ki for various compounds
assay-system: Recombinant Rhinovirus 3C protease (RVP) serotype-14 (Human rhinovirus 14)
Construct: Recombinant Rhinovirus 3C proteases from serotypes 14, 16, 2 or 89; made in house
procedure-text: Inhibition of Rhinovirus Protease (fluorescence resonance energy transfer assay), serotype 14
Assay type: biochemical, human rhinovirus (HRV)

GET /values?readout=Ki&item= CC(C)CC(NC(=O)OCc1ccccc1)C(=O)NC(Cc1ccccc1)C(=O)NC(C=C1CCCOC1=O)CCC(N)=O (stereo not shown) [Compound 130]
0.03 to 0.04 µM

Try CC(C)C[C@H](NC(=O)OCc1ccccc1)C(=O)N[C@@H](Cc1ccccc1)C(=O)N[C@H](/C=C/C(=O)N1CCc2cc(S(=O)(=O)N(C)C)ccc21)CCC(N)=O [Compound 88] next.
> 30 µM

Try CCOC(=O)/C=C/[C@H](CCC(N)=O)NC(=O)[C@H](Cc1ccc(CO)cc1)NC(=O)[C@H](CC(C)C)NC(=O)OCc1ccccc1 [Compound 114] next.
≥ 1 µM

Try CC(C)CC(NC(=O)OCc1ccccc1)C(=O)NC(Cc1ccccc1)C(=O)NC(C=Cc1ccccc1C#N)CCC(N)=O (stereo not shown) [Compound 145] next.
10 to 20 µM

----------
Test system: HI-HeLa cells
procedure-text: Cytotoxicity in mock-infected HI-HeLa cells (antirhinoviral assay, XTT)
Format: cell-based
quantity-name: CC50

See these solved cases before continuing.
CCOC(=O)/C=C/[C@H](CCC(N)=O)NC(=O)[C@H](Cc1ccccc1)NC(=O)[C@H](CC(C)C)NC(=O)C1CCCC1: > 320 µM
CCOC(=O)/C(C)=C/[C@H](CCC(N)=O)NC(=O)[C@H](Cc1ccccc1)NC(=O)[C@H](CC(C)C)NC(=O)OCc1ccccc1: > 320 µM
CC(=O)N1CC/C(=C\[C@H](CCC(N)=O)NC(=O)[C@H](Cc2ccccc2)NC(=O)[C@H](CC(C)C)NC(=O)OCc2ccccc2)C1=O: > 100 µM
CC(C)C[C@H](NC(=O)OCc1ccccc1)C(=O)N[C@@H](Cc1ccccc1)C(=O)N[C@H](/C=C/C(=O)N(C)c1ccccc1)CCC(N)=O: > 320 µM

Now examine the next entry.
GET /values?readout=CC50&item= CCOC(=O)/C=C/[C@H](CCC(N)=O)NC(=O)[C@H](Cc1ccccc1)NC(=O)OCc1ccccc1 [Compound 30, Ethyl-3-(CBZ-L-Phe-L-Gln)-E-Propenoate]
100 µM

----------
assay-system: Recombinant Rhinovirus 3C protease (RVP) serotype-14 (Human rhinovirus 14, UniProt P03303)
Construct: Recombinant Rhinovirus 3C proteases from serotypes 14, 16, 2 or 89; made in house
Sequence (P03303 1538-1719): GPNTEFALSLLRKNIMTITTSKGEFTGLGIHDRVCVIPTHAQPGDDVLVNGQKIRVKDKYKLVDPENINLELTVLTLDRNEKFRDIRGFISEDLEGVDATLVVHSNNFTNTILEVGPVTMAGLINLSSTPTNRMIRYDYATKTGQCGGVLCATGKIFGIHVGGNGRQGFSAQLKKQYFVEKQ
procedure-text: Inhibition of Rhinovirus Protease (fluorescence resonance energy transfer assay), serotype 14
Format: biochemical, human rhinovirus (HRV)
condition-description: RVP serotype-14; progress curves in enzyme start experiments
quantity-name: kobs/I

See these solved cases before continuing.
COC(=O)/C=C/[C@H](CCC(N)=O)NC(=O)[C@H](Cc1ccccc1)NC(=O)[C@H](CC(C)C)NC(=O)OCc1ccccc1: 20,000 M-1 sec-1
CCOC(=O)/C=C/[C@H](CCC(N)=O)NC(=O)[C@H](Cc1ccccc1)NC(=O)[C@H](C)NC(=O)OCc1ccccc1: 11,288 M-1 sec-1
CCOC(=O)/C=C/[C@H](CCC(N)=O)NC(=O)[C@H](Cc1ccccc1)NC(=O)[C@H](CC(C)C)NC(=O)OCc1ccccc1: 37,000 M-1 sec-1
CC(C)CC(NC(=O)OCc1ccccc1)C(=O)NC(Cc1ccccc1)C(=O)NC(C=C1CCOC1=O)CCC(N)=O (stereo not drawn): 10,918 M-1 sec-1
COc1ccc(C(=O)/C=C/[C@H](CCC(N)=O)NC(=O)[C@H](Cc2ccccc2)NC(=O)[C@H](CC(C)C)NC(=O)OCc2ccccc2)cc1: 150,000 M-1 sec-1

Now examine the next entry.
GET /values?readout=kobs/I&item= CCOC(=O)/C=C/[C@H](CCC(N)=O)NC(=O)[C@H](C)NC(=O)[C@H](CC(C)C)NC(=O)OCc1ccccc1
1,348 M-1 sec-1

----------
System: HI-HeLa cells
procedure-text: Cytotoxicity in mock-infected HI-HeLa cells (antirhinoviral assay, XTT)
Format: cell-based
condition-description: mock-infected HI-HeLa cells; two days; XTT; read-out: CC50
quantity-name: CC50

CC(C)C[C@H](NC(=O)OCc1ccccc1)C(=O)N[C@@H](Cc1ccccc1)C(=O)N[C@H](/C=C/C(=O)Nc1ccccc1)CCC(N)=O: > 320 µM
CC(C)C[C@H](NC(=O)OCc1ccccc1)C(=O)N[C@@H](Cc1ccccc1)C(=O)N[C@H](/C=C/c1ccccn1)CCC(N)=O: > 100 µM
CC(C)C[C@H](NC(=O)OCc1ccccc1)C(=O)N[C@@H](Cc1ccccc1)C(=O)N[C@H](/C=C/C(=O)N1CCc2cccc(S(C)(=O)=O)c21)CCC(N)=O: > 320 µM
Cc1cc(CCCCCCCOc2ccc(C3=N[C@@H](C)CO3)cc2)on1 [WIN 52084, reference compound]: > 10 µM
CC(C)C[C@H](NC(=O)OCc1ccccc1)C(=O)N[C@@H](Cc1ccccc1)C(=O)N[C@H](/C=C/C(=O)c1ccccc1)CCC(N)=O: 16 µM

Now examine the next entry.
GET /values?readout=CC50&item= CC(C)C[C@H](NC(=O)OCc1ccccc1)C(=O)N[C@@H](Cc1ccccc1)C(=O)N[C@H](/C=C/C(=O)N1CCCO1)CCC(N)=O
> 320 µM

----------
assay-system: Recombinant Rhinovirus 3C protease (RVP) serotype 16 (Human rhinovirus 16)
Construct: Recombinant Rhinovirus 3C proteases from serotypes 14, 16, 2 or 89; made in house
Sequence (Q82122 1511-1693): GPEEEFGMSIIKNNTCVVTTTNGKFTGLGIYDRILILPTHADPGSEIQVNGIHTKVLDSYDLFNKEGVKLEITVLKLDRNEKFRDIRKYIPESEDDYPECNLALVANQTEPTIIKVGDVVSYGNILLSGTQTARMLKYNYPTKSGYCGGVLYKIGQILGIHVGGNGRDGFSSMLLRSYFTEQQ
procedure-text: Inhibition of Rhinovirus Protease (fluorescence resonance energy transfer assay), serotype 16
Assay type: biochemical, human rhinovirus (HRV)
condition-description: RVP serotype 16; progress curves in enzyme start experiments
quantity-name: kobs/I

See these solved cases before continuing.
CCC[C@H](NC(=O)[C@H](CC(C)C)NC(=O)OCc1ccccc1)C(=O)N[C@H](/C=C/C(=O)OCC)CCC(N)=O [Compound 137]: 1,157 M-1 sec-1
CCOC(=O)/C(C)=C/[C@H](CCC(N)=O)NC(=O)[C@H](Cc1ccccc1)NC(=O)[C@H](CC(C)C)NC(=O)SC(C)C [Compound 171]: 3,250 M-1 sec-1
CCOC(=O)/C=C/[C@H](CCC(N)=O)NC(=O)[C@H](Cc1ccccc1)NC(=O)[C@H](CSc1ccccc1)NC(=O)SC1CCCC1 [Compound 173]: 185,000 M-1 sec-1
CCOC(=O)/C=C/[C@H](CCC(N)=O)NC(=O)[C@H](Cc1ccccc1)NC(=O)[C@H](CC(=O)N(C)C)NC(=O)OCc1ccccc1 [Compound 158]: 6,400 M-1 sec-1
CCOC(=O)/C=C/[C@H](CCC(N)=O)NC(=O)[C@H](Cc1ccc(F)cc1)NC(=O)[C@H](CC(C)C)NC(=O)OCc1ccccc1 [Compound 35]: 9,177 M-1 sec-1

GET /values?readout=kobs/I&item= CCOC(=O)/C=C/[C@H](CCC(N)=O)NC(=O)[C@H](Cc1ccccc1)NC(=O)[C@@H](NC(=O)OCc1ccccc1)C(C)C [Compound 146]
16,900 M-1 sec-1

Try CC(C)CC(NC(=O)OCc1ccccc1)C(=O)NC(Cc1ccccc1)C(=O)NC(C=C1CCOC1=O)CCC(N)=O (stereo not shown) [Compound 90] next.
3,600 M-1 sec-1

----------
assay-system: Recombinant Rhinovirus 3C protease (RVP) serotype-14 (Human rhinovirus 14, UniProt P03303)
Construct: Recombinant Rhinovirus 3C proteases from serotypes 14, 16, 2 or 89; made in house
procedure-text: Inhibition of Rhinovirus Protease (fluorescence resonance energy transfer assay), serotype 14
Format: biochemical, human rhinovirus (HRV)
condition-description: RVP serotype-14; progress curves in enzyme start experiments
Overview of recorded kobs/I for various molecules

See these solved cases before continuing.
CC(C)C[C@H](NC(=O)OCc1ccccc1)C(=O)N[C@@H](Cc1ccccc1)C(=O)N[C@H](/C=C/C(=O)n1cccc1)CCC(N)=O [Compound 66]: 400,000 M-1 sec-1
CCOC(=O)/C=C/[C@H](CCC(N)=O)NC(=O)[C@H](Cc1ccccc1)NC(=O)[C@H](CC(=O)N(C)C)NC(=O)OCc1ccccc1 [Compound 158]: 22,600 M-1 sec-1
CC(=O)N1CC/C(=C\[C@H](CCC(N)=O)NC(=O)[C@H](Cc2ccc(F)cc2)NC(=O)[C@H](CSc2ccccc2)NC(=O)SC2CCCC2)C1=O [Compound 181]: 1,000,000 M-1 sec-1
CCOC(=O)/C=C/[C@H](CCC(N)=O)NC(=O)[C@H](Cc1ccccc1)NC(=O)[C@H](CSCc1ccccc1)NC(=O)OCc1ccccc1 [Compound 165]: 97,000 M-1 sec-1
CCOC(=O)/C=C/[C@H](CCC(N)=O)NC(=O)[C@H](Cc1ccccc1)NC(=O)[C@H](Cc1ccccc1)NC(=O)SCc1ccccc1 [Compound 161]: 1,086,000 M-1 sec-1
CCOC(=O)/C=C/[C@H](CCC(N)=O)NC(=O)[C@H](Cc1ccc(C(N)=O)cc1)NC(=O)[C@H](CC(C)C)NC(=O)OCc1ccccc1 [Compound 133]: 9,600 M-1 sec-1
CCOC(=O)/C=C/[C@H](CCC(N)=O)NC(=O)[C@H](Cc1ccccc1)NC(=O)[C@H](CC(C)C)NC(=O)c1ccc(C(=O)NC)cc1 [Compound 129]: 230,000 M-1 sec-1
CC(C)C[C@H](NC(=O)OCc1ccccc1)C(=O)N[C@@H](Cc1ccccc1)C(=O)N[C@H](/C=C/S(=O)(=O)c1ccccc1)CCC(N)=O [Compound 10]: 270 M⁻¹ s⁻¹
CC(C)C[C@H](NC(=O)OCc1ccccc1)C(=O)N[C@@H](Cc1ccccc1)C(=O)N[C@H](/C=C/C(=O)Nc1ccccc1)CCC(N)=O [Compound 59]: 200 M⁻¹ s⁻¹

GET /values?readout=kobs/I&item= CCOC(=O)/C=C/[C@H](CCC(N)=O)NC(=O)[C@H](Cc1ccccc1)NC(=O)[C@H](CC(C)C)NC(=O)SC(C)C [Compound 170]
85,300 M-1 sec-1

The measured values listed here are drawn from patent US6362166B1.
